molecular target: Protein kinase C epsilon type (Homo sapiens, UniProt Q02156); experiment: Inhibitory concentration against recombinant human Protein kinase C epsilon
Sequence (Q02156 whole entry): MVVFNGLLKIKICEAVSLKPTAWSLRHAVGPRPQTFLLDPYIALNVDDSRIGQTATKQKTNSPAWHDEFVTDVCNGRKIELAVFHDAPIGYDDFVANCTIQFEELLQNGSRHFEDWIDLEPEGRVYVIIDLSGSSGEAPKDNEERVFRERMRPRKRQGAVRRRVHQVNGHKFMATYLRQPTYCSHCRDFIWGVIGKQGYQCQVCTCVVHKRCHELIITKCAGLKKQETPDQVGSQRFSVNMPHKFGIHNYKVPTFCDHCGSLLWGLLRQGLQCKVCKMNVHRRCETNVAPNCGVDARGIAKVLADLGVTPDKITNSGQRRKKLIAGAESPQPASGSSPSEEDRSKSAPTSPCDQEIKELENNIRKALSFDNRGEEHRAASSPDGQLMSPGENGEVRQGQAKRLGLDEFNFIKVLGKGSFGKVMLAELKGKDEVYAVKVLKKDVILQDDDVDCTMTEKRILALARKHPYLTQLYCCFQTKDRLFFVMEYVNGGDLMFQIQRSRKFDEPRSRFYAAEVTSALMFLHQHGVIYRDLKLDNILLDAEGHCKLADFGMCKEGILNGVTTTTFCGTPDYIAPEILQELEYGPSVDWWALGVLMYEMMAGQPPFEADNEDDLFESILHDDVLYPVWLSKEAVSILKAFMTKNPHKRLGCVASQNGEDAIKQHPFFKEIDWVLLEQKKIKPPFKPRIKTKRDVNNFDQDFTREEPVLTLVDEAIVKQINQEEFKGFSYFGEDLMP
Measurement Type: IC50 (µM)
Write the value in µM as a bare number.

Worked set:
{"Compound String": "O=C1NC(=O)C(c2cn(CCCO)c3ccccc23)=C1Nc1ccccc1", "Units": "µM", "IC50": 6.32}
{"Compound String": "CN(C)CCCn1cc(C2=C(Nc3cccc(Cl)c3)C(=O)NC2=O)c2ccccc21", "Units": "µM", "IC50": 2.61}
{"Compound String": "CN(C)CCCn1cc(C2=C(Nc3ccccc3)C(=O)NC2=O)c2ccccc21", "Units": "µM", "IC50": 3.46}
{"Compound String": "O=C1NC(=O)C(c2cn(CCCN3CCCCC3)c3ccccc23)=C1Nc1ccccc1", "Units": "µM", "IC50": 3.42}

Dear colleague, I am looking for the recorded IC50 of the following compound: Cc1cccc(NC2=C(c3cn(CCCN(C)C)c4ccccc34)C(=O)NC2=O)c1 3.46

Dear colleague, I am looking for the recorded IC50 of the following compound: O=C1NC(=O)C(c2cn(CCCn3ccnc3)c3ccccc23)=C1Nc1ccccc1 2.81

* * *

target: Protein kinase C alpha type (Homo sapiens, UniProt P17252); assay: Inhibitory concentration against recombinant human Protein kinase C alpha
Measurement Type: IC50 (µM)
Write the value in µM as a bare number.

{"Compound String": "CN(C)CCCCCn1cc(C2=C(Nc3ccccc3)C(=O)NC2=O)c2ccccc21", "Units": "µM", "Readout Value": 2.23}

Please provide the recorded IC50 for O=C1NC(=O)C(c2c[nH]c3ccccc23)=C1c1c[nH]c2ccccc12 , tested on Protein kinase C alpha type (Homo sapiens, UniProt P17252). 1.6

* * *

target: Protein kinase C epsilon type (Homo sapiens); experiment: Inhibitory concentration against recombinant human Protein kinase C epsilon
pIC50: −log10 of the molar value.
Measurement Type: pIC50

Dear colleague, I am looking for the recorded pIC50 of the following compound: O=C1NC(=O)C(c2c[nH]c3ccccc23)=C1Nc1ccccc1 < 5.00

Dear colleague, I am looking for the recorded pIC50 of the following compound: O=C1NC(=O)C(c2cn(CCCN3CCCC3)c3ccccc23)=C1Nc1ccccc1 < 5.00

Dear colleague, I am looking for the recorded pIC50 of the following compound: CN1CCN(CCCn2cc(C3=C(Nc4ccccc4)C(=O)NC3=O)c3ccccc32)CC1 < 5.00

// provenance: ChEMBL document CHEMBL1137905
